Taken from patent US10683278B2.

Test Name: In vivo pharmacokinetic and bioavailability experiments of rats
Set-up: species or system SD rats
Condition Label: Sprague-Dawley, rat, plasma; SD rats, Po, 25 mg/kg single dose; read-out: Cmax
Short version: Cmax at least 0.7 µg/mL is true (1), less is false (0).

| Compound | Discrete Label |
| --- | --- |
| COc1cc2ncnc(Oc3ccc(NC(=O)c4cn5c6c(c(N7CCN(C)CC7)c(F)cc6c4=O)OCN5C)cc3F)c2cc1OC [TL4830039] | false (0) |
| CCc1ccc2c(c1)c(=O)c(C(=O)Nc1ccc(Oc3ncnc4cc(OCCN(C)C)c(OC)cc34)c(F)c1)c(C)n2C [GDL5000128] | true (1) |
| COc1cc2ncnc(Oc3ccc(NC(=O)c4cn5c6c(c(N7CCC(O)CC7)c(F)cc6c4=O)CCC5C)cc3F)c2cc1OC (stereo not shown) [TL4830031] | true (1) |
| CCc1ccc2c(c1)c(=O)c(C(=O)Nc1ccc(Oc3ncnc4cc(OCCN5CCCC5)c(OC)cc34)c(F)c1)c(C)n2C [TL4830058] | true (1) |
| CCc1ccc2c(c1)c(=O)c(C(=O)Nc1ccc(Oc3ncnc4cc(OCCCN5CCOCC5)c(OC)cc34)c(F)c1)c(C)n2C [GDL5000123] | true (1) |
| CCc1ccc2c(c1)c(=O)c(C(=O)Nc1ccc(Oc3ncnc4cc(OCCCN5CCN(C)CC5)c(OC)cc34)c(F)c1)c(C)n2C [GDL5000138] | false (0) |
| COc1cc2ncnc(Oc3ccc(NC(=O)c4cn(-c5ccc(F)cc5)c5cc(N6CCNCC6)c(F)cc5c4=O)cc3F)c2cc1OC [TL4830042] | false (0) |

* * *

// reported Inhibition rate (%) against receptor tyrosine kinase FLT-3 per item
Tested System: FLT-3 kinase domain recombinant protein (Homo sapiens)
Construct: 50 μL FLT-3 kinase domain recombinant protein diluted with reaction buffer to initiate the reaction
Sequence (P36888 610-943 limits assumed): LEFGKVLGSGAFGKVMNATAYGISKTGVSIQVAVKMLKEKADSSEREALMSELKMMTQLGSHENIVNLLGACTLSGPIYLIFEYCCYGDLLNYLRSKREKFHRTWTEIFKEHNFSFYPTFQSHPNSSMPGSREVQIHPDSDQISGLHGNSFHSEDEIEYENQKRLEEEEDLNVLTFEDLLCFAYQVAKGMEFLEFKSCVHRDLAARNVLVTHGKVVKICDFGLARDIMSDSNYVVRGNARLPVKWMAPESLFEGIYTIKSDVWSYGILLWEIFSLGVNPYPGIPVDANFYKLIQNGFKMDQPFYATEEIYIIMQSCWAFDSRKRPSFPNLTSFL
Test Name: Inhibition rate on FLT3 kinase (ELISA)
Assay type: biochemical
Condition Label: compound 10 nM; two values per compound; 0.01 µM
Property Label: Inhibition rate (%) against receptor tyrosine kinase FLT-3

| Compound | Unit Label | Result Number |
| --- | --- | --- |
| CCc1ccc2c(c1)c(=O)c(C(=O)Nc1ccc(Oc3ncnc4cc(OCCCN5CCOCC5)c(OC)cc34)c(F)c1)c(C)n2C [GDL5000123] | % | 74.8 |
| Cc1c(C(=O)Nc2ccc(Oc3ncnc4[nH]cc(-c5ccccc5)c34)c(F)c2)c(=O)c2cc(OC(F)(F)F)ccc2n1C [TL4800117] | % | 61.5 |
| CCc1ccc2c(c1)c(=O)c(C(=O)Nc1ccc(Oc3ncnc4cc(OCCCN5CCN(C)CC5)c(OC)cc34)c(F)c1)c(C)n2C [GDL5000138] | % | 66.4 |
| CCc1ccc2c(c1)c(=O)c(C(=O)Nc1ccc(Oc3ncnc4[nH]cc(-c5ccccc5)c34)c(F)c1)c(C)n2C [TL4800075] | % | 41.9 |
| CCc1ccc2c(c1)c(=O)c(C(=O)Nc1ccc(Oc3ncnc4[nH]cc(-c5ccccc5)c34)c(C)c1)c(C)n2C [TL4830016] | % | 66.5 |
| COc1cc2ncnc(Oc3ccc(NC(=O)c4cn5c6c(c(N7CCC(O)CC7)c(F)cc6c4=O)CCC5C)cc3F)c2cc1OC (stereo not drawn) [TL4830031] | % | 57.9 |
| CCc1ccc2c(c1)c(=O)c(C(=O)Nc1ccc(Oc3ncnc4cc(OCCN5CCCC5)c(OC)cc34)c(F)c1)c(C)n2C [TL4830058] | % | 49.4 |
| CCc1ccc2c(c1)c(=O)c(C(=O)Nc1ccc(Oc3ccnc(N)c3Cl)c(F)c1)c(C)n2C [GDL5000059] | % | 52.7 |
| Cc1c(C(=O)Nc2ccc(Oc3ncnc4[nH]cc(-c5ccccc5)c34)c(F)c2)c(=O)c2cc(C(C)C)ccc2n1C [TL50172] | % | 54.2 |
| CCc1ccc2c(c1)c(=O)c(C(=O)Nc1ccc(Oc3ncnc4[nH]cc(-c5ccccc5)c34)c(F)c1)c(CC)n2C [TL4830005] | % | 49.8 |
| CCc1ccc2c(c1)c(=O)c(C(=O)Nc1ccc(Oc3ncnc4cc(OC)c(OC)cc34)c(F)c1)c(C)n2C [TL4800191] | % | 67.0 |
| COc1cc2ncnc(Oc3ccc(NC(=O)c4cn(C5CC5)c5cc(N6CCNCC6)c(F)cc5c4=O)cc3F)c2cc1OC [GDL5000110] | % | 49.2 |
| COc1cc2ncnc(Oc3ccc(NC(=O)c4cn5c6c(cc(C)cc6c4=O)CCC5)cc3F)c2cc1OC [TL4830032] | % | 62.8 |
| Cc1c(C(=O)Nc2ccc(Oc3ncnc4[nH]cc(-c5ccccc5)c34)c(F)c2)c(=O)c2cc(C(C)(C)C)ccc2n1C [TL4800062] | % | 44.9 |
| COc1cc2ncnc(Oc3ccc(NC(=O)c4cn5c6c(c(N7CCN(C)CC7)c(F)cc6c4=O)OCN5C)cc3F)c2cc1OC [TL4830039] | % | 49.8 |
| CCc1ccc2c(c1)c(=O)c(C(=O)Nc1ccc(Oc3ncnc4[nH]cc(-c5ccc(OC)cc5)c34)c(F)c1)c(C)n2C [GDL5000037] | % | 59.8 |
| Cc1c(C(=O)Nc2ccc(Oc3ncnc4[nH]cc(-c5ccccc5)c34)c(F)c2)c(=O)c2cc(C(F)(F)F)ccc2n1C [TL50121] | % | 61.6 |
| CCc1ccc2c(c1)c(=O)c(C(=O)Nc1ccc(Oc3ncnc4cc(OCCN(C)C)c(OC)cc34)c(F)c1)c(C)n2C [GDL5000128] | % | 71.7 |
| Cc1c(C(=O)Nc2ccc(Oc3ncnc4[nH]cc(-c5ccccc5)c34)c(F)c2)c(=O)c2cc(F)ccc2n1C [TL50087] | % | 41.8 |
| COc1cc2ncnc(Oc3ccc(NC(=O)c4cn(-c5ccc(F)cc5)c5cc(N6CCNCC6)c(F)cc5c4=O)cc3F)c2cc1OC [TL4830042] | % | 40.0 |
| CCc1ccc2c(c1)c(=O)c(C(=O)Nc1ccc(Oc3ncnc4[nH]cc(-c5cnn(C)c5)c34)c(F)c1)c(C)n2C [GDL5000038] | % | 55.0 |
